Assign %Inh to each entry below.
# Tested on: CDKL2;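 also: KINOMEscan kinase panel screen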
# Condition parameters: concentration: 1 μM, replicates: in singlicate; n = 1
Field format: number, assumed %, no unit text.

Input line: Note %Inh for the compound shown: CN(C)CCN(C)C(=O)c1cc(-c2ccncc2)c(-c2ccc(Cl)c(O)c2)o1.Cl.Cl
Output line: 20

Input line: Report %Inh for Cc1nnc(-c2ccc3occ(-c4ccc(S(C)=O)cc4)c3c2)[nH]1 (stereo not drawn)
Output line: 0

Input line: In one line, give reported %Inh of the entry Cc1cc(N2Cc3ccccc3C2)nc(Nc2ccc(S(=O)(=O)N3CCOCC3)cc2)n1.Cl .
Output line: 0

Input line: Look up and state reported %Inh for Cc1cccc(-c2nc(Nc3cccc(C(N)=O)c3)c3ccccc3n2)n1
Output line: 13

Input line: Tell me measured %Inh for COc1ccc(C2=C(Nc3cccc(C(=O)O)c3)C(=O)NC2=O)cc1 please.
Output line: 37

Input line: Query %Inh for Cc1ccc(-c2cc(-c3c[nH]nc3-c3ccccn3)ccn2)cc1
Output line: 28
